B1: TPR 5TU (parent)
chain: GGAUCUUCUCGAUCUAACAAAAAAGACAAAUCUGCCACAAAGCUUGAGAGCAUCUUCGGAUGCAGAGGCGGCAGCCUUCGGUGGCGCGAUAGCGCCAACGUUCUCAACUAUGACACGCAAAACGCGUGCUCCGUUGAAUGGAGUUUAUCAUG

- Variants of: B1
- protocol-summary: polymerase ribozyme fitness, log enrichment relative to wild type (log ratio); higher = more active; in vitro selection for triplet polymerase activity
Fewer inactive variants are shown than the library holds.
Each entry gets not fulfilled if its polymerase ribozyme fitness (log ratio) stays under -2, and fulfilled if its polymerase ribozyme fitness (log ratio) is -2 or above.

Past entries and their recorded results:
A52G U55A G92U | fulfilled
A29G A47C U55G | not fulfilled
A24U U55C C85A | fulfilled
A12G A23C A47C A60G C93U | not fulfilled
C103A G117U | fulfilled

Q) API: above_or_equal(metric=polymerase ribozyme fitness (log ratio), cutoff=-2) for item C27U C36U
A) not fulfilled

Q) // inclusive: polymerase ribozyme fitness (log ratio) at least -2? input: A16G G94A G143C
A) not fulfilled

Q) hey, is polymerase ribozyme fitness (log ratio) for this one >= -2? C85U A89U A110C A121U G136A U146C
A) not fulfilled
